- Target System: CXCR3 Y308A (Homo sapiens, UniProt P49682, Y308A)
- Construct: expressed in transfected cells; host or cells: murine pre-B cell line L1.2, transient transfection
- Sequence (P49682 whole entry Y308A): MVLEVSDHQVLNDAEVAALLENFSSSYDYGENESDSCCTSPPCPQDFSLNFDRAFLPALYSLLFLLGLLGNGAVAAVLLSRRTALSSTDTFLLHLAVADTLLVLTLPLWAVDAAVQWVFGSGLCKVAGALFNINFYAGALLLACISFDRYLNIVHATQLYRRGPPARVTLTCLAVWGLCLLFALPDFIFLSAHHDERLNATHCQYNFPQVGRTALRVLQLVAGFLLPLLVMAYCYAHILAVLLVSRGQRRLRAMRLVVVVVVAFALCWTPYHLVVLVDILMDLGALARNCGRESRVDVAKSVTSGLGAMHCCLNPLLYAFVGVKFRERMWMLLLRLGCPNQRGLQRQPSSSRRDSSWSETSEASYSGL
- Test Details: Chemotaxis assay, L1.2 transfectants migrating to CXCL11
- Format: cell-based
- Condition Description: Y308A, 30 nM CXCL11; read-out: IC50 chemotaxis (mean ± SEM)
Measure: pIC50
Units for pIC50: none; it is -log10 of a concentration expressed in mol/L.

Q: So what's the measured pIC50 for this one? `Cc1ccc(-c2ccc3c(c2)C=C(C(=O)Nc2ccc(C[N+](C)(C)C4CCOCC4)cc2)CCC3)cc1.[Cl-]`
Ans: 4.38

Provenance of the data: paper PMC4376459
